# Protocol Details: Biodistribution in BALB/c mice
# Format: in vivo
# Test Parameters: female, BALB/c, mouse, muscle, iv, 30 MBq, total radioactivity; 1 h p.i.; read-out: uptake in muscle
Where a SMILES comes first, the peptide text is derived from it. [ ]: non-standard residue; d: D form. The star is where a group is joined. DOTA = O=C(O)CN1CCN(CC(=O)O)CCN(CC(=O)*)CCN(CC(=O)O)CC1; 1Nal = N[C@@H](Cc1cccc2ccccc12)C(=O)O; NMeNle = CCCC[C@H](NC)C(=O)O
Measured Attribute: tissue uptake at 1 h (%ID/g)
Give bare numbers, in %ID/g.

Problem: Query (compound): CCCC[C@@H](C(=O)N[C@@H](CC(=O)O)C(=O)N[C@@H](Cc1cccc2ccccc12)C(N)=O)N(C)C(=O)[C@H](Cc1c[nH]c2ccccc12)NC(=O)CNC(=O)[C@H](Cc1ccc(O)cc1)NC(=O)[C@@H]1CCCN1C(=O)[C@@H](CCC(=O)O)NC(=O)CN1CCN(CC(=O)O)CCN(CC(=O)O)CCN(CC(=O)O)CC1 [[^177Lu]Lu-1, metal not drawn] ({DOTA}-[dE]PYGW[NMeNle]D[1Nal]-NH2) ; field requested: tissue uptake at 1 h
Result: 0.36

###

# Protocol Details: Metabolic stability in vivo and radiometabolites (radio-HPLC of blood, urine, liver, kidney)
# Design: species or system BALB/c mice
# Test Parameters: liver, 30 min p.i.
Where a SMILES comes first, the peptide text is derived from it. [ ]: non-standard residue; d: D form. The star is where a group is joined. DOTA = O=C(O)CN1CCN(CC(=O)O)CCN(CC(=O)*)CCN(CC(=O)O)CC1; 1Nal = N[C@@H](Cc1cccc2ccccc12)C(=O)O; NMeNle = CCCC[C@H](NC)C(=O)O
Measured Attribute: percentage of intact radiopeptide / radiometabolite (%)
Answers are plain numbers, in %.

Illustrative cases are given below, each with its answer.
[[record]]
compound = "CCCC[C@@H](C(=O)N[C@@H](CC(=O)O)C(=O)N[C@@H](Cc1cccc2ccccc12)C(N)=O)N(C)C(=O)[C@H](Cc1c[nH]c2ccccc12)NC(=O)CNC(=O)[C@H](Cc1ccc(O)cc1)NC(=O)[C@@H]1CCCN1C(=O)[C@@H](CCC(=O)O)NC(=O)CN1CCN(CC(=O)O)CCN(CC(=O)O)CCN(CC(=O)O)CC1 [[^177Lu]Lu-1, metal not drawn] ({DOTA}-[dE]PYGW[NMeNle]D[1Nal]-NH2)"
unit_label = "%"
measured = 53.9

[[record]]
compound = "CCCC[C@@H](C(=O)N[C@@H](CC(=O)O)C(=O)O)N(C)C(=O)[C@H](Cc1c[nH]c2ccccc12)NC(=O)CNC(=O)[C@H](Cc1ccc(O)cc1)NC(=O)[C@@H]1CCCN1C(=O)[C@@H](CCC(=O)O)NC(=O)CN1CCN(CC(=O)O)CCN(CC(=O)O)CCN(CC(=O)O)CC1 [[^177Lu]Lu-M2, metal not drawn] ({DOTA}-[dE]PYGW[NMeNle]D-OH; C-terminus assumed)"
unit_label = "%"
measured = 7.2

[[record]]
compound = "CCCC[C@@H](C(=O)O)N(C)C(=O)[C@H](Cc1c[nH]c2ccccc12)NC(=O)CNC(=O)[C@H](Cc1ccc(O)cc1)NC(=O)[C@@H]1CCCN1C(=O)[C@@H](CCC(=O)O)NC(=O)CN1CCN(CC(=O)O)CCN(CC(=O)O)CCN(CC(=O)O)CC1 [[^177Lu]Lu-M3, metal not drawn] ({DOTA}-[dE]PYGW[NMeNle]-OH; C-terminus assumed)"
unit_label = "%"
measured = 8.5


Problem: Query (compound): CCCC[C@@H](C(=O)N[C@@H](CC(=O)O)C(=O)N[C@@H](Cc1cccc2ccccc12)C(=O)O)N(C)C(=O)[C@H](Cc1c[nH]c2ccccc12)NC(=O)CNC(=O)[C@H](Cc1ccc(O)cc1)NC(=O)[C@@H]1CCCN1C(=O)[C@@H](CCC(=O)O)NC(=O)CN1CCN(CC(=O)O)CCN(CC(=O)O)CCN(CC(=O)O)CC1 [[^177Lu]Lu-M1, metal not drawn] ({DOTA}-[dE]PYGW[NMeNle]D[1Nal]-OH) ; field requested: percentage of intact radiopeptide / radiometabolite
Result: 4.8

Value source: paper PMC7583830
